These measurements were taken from ChEMBL document CHEMBL1156378.

study.target: UniProt:O42713
Sequence (O42713 whole entry): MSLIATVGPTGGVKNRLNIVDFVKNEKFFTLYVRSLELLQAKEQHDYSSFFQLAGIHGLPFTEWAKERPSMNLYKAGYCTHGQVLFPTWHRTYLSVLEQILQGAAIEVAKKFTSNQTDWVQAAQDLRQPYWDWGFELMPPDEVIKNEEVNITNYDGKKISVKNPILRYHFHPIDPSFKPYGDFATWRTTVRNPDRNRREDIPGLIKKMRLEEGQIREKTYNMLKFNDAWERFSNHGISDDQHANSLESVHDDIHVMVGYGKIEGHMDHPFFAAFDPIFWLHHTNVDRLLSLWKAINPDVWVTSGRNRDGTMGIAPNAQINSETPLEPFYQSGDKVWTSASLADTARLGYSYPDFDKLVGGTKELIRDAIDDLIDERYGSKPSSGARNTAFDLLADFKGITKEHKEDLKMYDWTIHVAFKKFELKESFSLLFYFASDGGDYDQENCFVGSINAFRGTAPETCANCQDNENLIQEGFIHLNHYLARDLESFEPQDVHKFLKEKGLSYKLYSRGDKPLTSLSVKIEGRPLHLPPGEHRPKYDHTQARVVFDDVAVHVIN
readout.name: pIC50
Give bare numbers, as −log10 of the molar value.

pIC50 reported for this compound Oc1cc(O)cc(CC(c2ccc(O)cc2O)c2c(O)cc(/C=C/c3ccc(O)cc3O)cc2O)c1 (stereo unspecified) [ANDALASIN A] : 4.41
